Assay: ACEA_AR_agonist_AUC_viability: ACEA Biosciences xCELLigence Real-Time Cell Analysis on Androgen Receptor Agonism for Viability (AID 2283775)
Protocol: ACEA_AR_agonist is a cell-based, single-readout assay that uses 22Rv1, a human prostate cancer cell line, with measurements taken at 80 hours after chemical dosing in a 384-well plate, although TO5 and TO6 (mc0.srcf) used a 96-well plate. Differences in plate size can be ignored given data normalization.ACEA_AR_80hr is one of two assay component(s) measured or calculated from the ACEA_AR assay. […]
Inconclusive results are not listed. Activity calls are given as the source filed them. How the source made its calls: active means hit-call score of the fitted dose curve at least 0.9, where 1 is the maximum; inconclusive means response in the unintended direction; inactive means score below 0.9.
Outcome codes: active, inactive

[
  {
    "Compound": "C=CC(=O)OCC(CC)CCCC (configuration not stated)",
    "Label Class": "active"
  },
  {
    "Compound": "CN(C)C(=O)C(c1ccccc1)c1ccccc1",
    "Label Class": "inactive"
  },
  {
    "Compound": "O=C1Nc2ccc(Cl)cc2C(c2ccccc2)=NC1O (configuration not stated)",
    "Label Class": "inactive"
  },
  {
    "Compound": "O=C(NCNC(=O)NC1C(=O)NC(=O)N1CO)NC1C(=O)NC(=O)N1CO (configuration not stated)",
    "Label Class": "inactive"
  },
  {
    "Compound": "O=C(NC(=O)c1c(F)cccc1F)Nc1ccc(Oc2ccc(C(F)(F)F)cc2Cl)cc1F",
    "Label Class": "inactive"
  },
  {
    "Compound": "CCCC=NO",
    "Label Class": "inactive"
  },
  {
    "Compound": "CCOP(O)OCC",
    "Label Class": "inactive"
  }
]

====

Target: X-box-binding protein 1 (Homo sapiens)
Assay: ATG_Xbp1_CIS: Attagene CIS-FACTORIAL HepG2 Assay for human X-box Binding Protein 1 (XBP1) (AID 2282972)
Conditions: HepG2 XBP1 cis-element reporter, Attagene multiplex; actives raise or lower the signal
Calls of active or inactive are those of the source. The calls were made as follows: active = hit-call score of the fitted dose curve at least 0.9, where 1 is the maximum; inactive = score below 0.9.
Labels: active, inactive

[
  {
    "Compound": "SCc1ccco1",
    "Label Class": "inactive"
  },
  {
    "Compound": "CCCCNP(N)(N)=S",
    "Label Class": "inactive"
  },
  {
    "Compound": "C[N+](C)=CCl",
    "Label Class": "inactive"
  },
  {
    "Compound": "O=C(O)C(Br)Br",
    "Label Class": "inactive"
  },
  {
    "Compound": "CCCC=NO",
    "Label Class": "inactive"
  },
  {
    "Compound": "CC1(C)CC(=O)CC(C)(C)N1[O]",
    "Label Class": "inactive"
  },
  {
    "Compound": "Cc1ccc(OP(=O)(Oc2ccc(C)cc2)Oc2ccc(C)cc2)cc1 (tested in a mixture with another compound)",
    "Label Class": "inactive"
  },
  {
    "Compound": "CC(C)c1ccc(O)cc1",
    "Label Class": "inactive"
  },
  {
    "Compound": "N#CCCCCC#N",
    "Label Class": "inactive"
  },
  {
    "Compound": "CN1C(=O)CCS(=O)(=O)C1c1ccc(Cl)cc1 (stereo not drawn)",
    "Label Class": "inactive"
  },
  {
    "Compound": "CC(=O)C=Cc1ccccc1",
    "Label Class": "inactive"
  },
  {
    "Compound": "[CH3][Sn]([CH3])([Cl])[Cl]",
    "Label Class": "inactive"
  },
  {
    "Compound": "Oc1ccc(C2(c3ccc(O)cc3)c3ccccc3-c3ccccc32)cc1",
    "Label Class": "active"
  },
  {
    "Compound": "CC1CCC(=O)O1 (stereo not drawn)",
    "Label Class": "inactive"
  },
  {
    "Compound": "C=C(Cl)Cl",
    "Label Class": "inactive"
  },
  {
    "Compound": "BrCBr",
    "Label Class": "inactive"
  },
  {
    "Compound": "O=S(=O)(O)OOS(=O)(=O)O",
    "Label Class": "inactive"
  },
  {
    "Compound": "COc1ncc(F)c2nc(S(=O)(=O)Nc3c(F)cccc3F)nn12",
    "Label Class": "inactive"
  },
  {
    "Compound": "C[N+](=O)[O-]",
    "Label Class": "inactive"
  },
  {
    "Compound": "Cc1cc(C)c(C2=C(OC(=O)CC(C)(C)C)C3(CCCC3)OC2=O)c(C)c1",
    "Label Class": "active"
  },
  {
    "Compound": "O=S(=O)(c1ccccc1)c1ccccc1",
    "Label Class": "inactive"
  },
  {
    "Compound": "CC1(C)C(=O)NC(=O)NC1=O",
    "Label Class": "inactive"
  },
  {
    "Compound": "CC=Cc1ccc2c(c1)OCO2",
    "Label Class": "inactive"
  }
]
